Listed compounds paired with reported Potency
target: DNA dC->dU-editing enzyme APOBEC-3F (Homo sapiens) (UniProt Q8IUX4); experiment: qHTS for inhibitors of Vif-A3F interactions: Cherry picks; details: HeLa A3F-eYFP + Vif, eYFP fluorescence, 24 h; also: potency is read from the fitted curve at half-maximal effect; nearly all actives have a fitted effect of over 70% in size
Sequence (Q8IUX4 whole entry, looked up): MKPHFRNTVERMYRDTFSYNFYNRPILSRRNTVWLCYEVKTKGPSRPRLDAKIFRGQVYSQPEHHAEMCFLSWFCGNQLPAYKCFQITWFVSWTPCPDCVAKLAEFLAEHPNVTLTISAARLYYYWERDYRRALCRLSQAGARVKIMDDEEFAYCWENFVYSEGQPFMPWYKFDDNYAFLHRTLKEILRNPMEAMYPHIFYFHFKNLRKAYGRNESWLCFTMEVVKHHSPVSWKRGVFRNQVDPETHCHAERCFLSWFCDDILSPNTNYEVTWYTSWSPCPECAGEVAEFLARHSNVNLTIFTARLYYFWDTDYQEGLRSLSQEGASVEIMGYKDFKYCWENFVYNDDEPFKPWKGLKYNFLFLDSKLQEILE
Among all 2,100 compounds or so, about 590 (28%) were called active. Roughly 42% stayed inconclusive and do not appear here. The list shows a part of the results.
Measure name: Potency

                                entry_smiles  measure_name   reported_result
 0    Cc1cc(N(C)C)c(C)cc1/C=C/c1ccnc2ccccc12       Potency  18.4 µM (active)
 1  COc1ccccc1NS(=O)(=O)c1cc([N+](=O)[O-])ccc1N/N=C/c1c[nH]c2ccccc12       Potency    13 µM (active)
 2      COc1ccc2oc(=O)c(-c3nc4ccccc4o3)cc2c1       Potency  20.6 µM (active)
 3  CN(C)S(=O)(=O)c1ccc2c(c1)/C(=C/c1cc3c([nH]1)CCCC3)C(=O)N2       Potency  2.23 µM (active)
 4   CN(C)c1ccc(/C=C(/C#N)C(=O)NCc2ccccc2)o1       Potency  14.6 µM (active)
 5  O=C1c2ccccc2C(=O)c2c(/C=C/N3CCCCC3)ccnc21       Potency  20.6 µM (active)
 6  CCN(CC)c1ccc2cc(-c3nc(-c4cccs4)no3)c(=O)oc2c1       Potency  2.06 µM (active)
 7  C[n+]1ccc(/C=C/c2cc[n+](C)c3ccccc23)c2ccccc21       Potency  11.6 µM (active)
 8  Cc1ccc(C(=O)NCCn2c(N)c(C#N)c3nc4ccccc4nc32)cc1       Potency  23.1 µM (active)
 9         N#C/C(=C\c1ccc(N2CCCCC2)o1)C(N)=O       Potency  15.8 µM (active)
10    COc1ccc2c(c1)N(C)/C(=C/c1cccc[n+]1C)S2       Potency  7.04 µM (active)
11  Cc1[nH]c2ccccc2c1/C=N/Nc1ccc([N+](=O)[O-])cc1       Potency  18.4 µM (active)
12  c1ccc(-c2cnn3c(-c4ccccc4)c(-c4ccccc4)nc3n2)cc1       Potency  1.84 µM (active)
13  CN1/C(=C\C=C2/SC(=S)NC2=O)C(C)(C)c2ccccc21       Potency  4.44 µM (active)
14   Cc1sc2ncnc(N=Nc3c(O)[nH]c4ccccc34)c2c1C       Potency    13 µM (active)

---

molecular target: DNA dC->dU-editing enzyme APOBEC-3F (Homo sapiens) (UniProt Q8IUX4); test: qHTS for inhibitors of Vif-A3F interactions: Cherry picks; settings: HeLa A3F-eYFP + Vif (tagged APOBEC3F with the HIV-1 protein that degrades it), eYFP fluorescence, 24 h; also: potency is read from the fitted curve at half-maximal effect; nearly all actives have a fitted effect of over 70% in size
In all, about 2,100 compounds went through this assay and about 590 (28%) were called active. Inconclusive results (about 42%) are left out. Some of the results follow.
Measure name: Potency

>>> print(df.to_string())
                                   compound  measure_name   reported_result
0  COc1ccc(C(=O)c2sc3nc(C)cc(-c4cccs4)c3c2N)cc1       Potency  18.4 µM (active)
1  CCOC(=O)CSc1nc2c(c(=O)[nH]1)C(C)(CC)Cc1ccccc1-2 (stereo not drawn)       Potency   8.2 µM (active)
2  CCN(CCCN(C)C)c1ccc(/C=C/c2ccnc3ccccc23)cc1       Potency  18.4 µM (active)
